- method-summary: Pharmacokinetic testing of salt forms, oral dosing
- Type: in vivo
- experimental-context: Sprague-Dawley, rat, plasma, 18.2 mg/kg; fasted male rats; PO 14.3-18.7 mg/kg (row Dose); mean
recorded-metric: bioavailability (%)
// note: answer is a bare numeric in %

stdin: Entry "CN1CCN(Cc2ccc(Nc3ncc(Cl)c(Nc4ccccc4S(=O)(=O)N(C)C)n3)cc2)CC1" has what bioavailability?
stdout: 26.9

====

- Test system: H1650 NSCLC cell line
- method-summary: H1650 cell viability (CellTiter-Glo)
- Type: cell-based
- experimental-context: Homo sapiens, NCI-H1650
recorded-metric: pEC50
Just the number, please; pEC50 means minus log10 of the concentration in mol/L.

stdin: Which pEC50 value is on record for C=CC(=O)Nc1cc(Nc2nccc(-c3cn(C)c4ccccc34)n2)c(OC)cc1N(C)CCN(C)C [osimertinib] ?
stdout: 5.66
